- experimental_system: human CFTR (Homo sapiens)
- Sequence (P13569 whole entry): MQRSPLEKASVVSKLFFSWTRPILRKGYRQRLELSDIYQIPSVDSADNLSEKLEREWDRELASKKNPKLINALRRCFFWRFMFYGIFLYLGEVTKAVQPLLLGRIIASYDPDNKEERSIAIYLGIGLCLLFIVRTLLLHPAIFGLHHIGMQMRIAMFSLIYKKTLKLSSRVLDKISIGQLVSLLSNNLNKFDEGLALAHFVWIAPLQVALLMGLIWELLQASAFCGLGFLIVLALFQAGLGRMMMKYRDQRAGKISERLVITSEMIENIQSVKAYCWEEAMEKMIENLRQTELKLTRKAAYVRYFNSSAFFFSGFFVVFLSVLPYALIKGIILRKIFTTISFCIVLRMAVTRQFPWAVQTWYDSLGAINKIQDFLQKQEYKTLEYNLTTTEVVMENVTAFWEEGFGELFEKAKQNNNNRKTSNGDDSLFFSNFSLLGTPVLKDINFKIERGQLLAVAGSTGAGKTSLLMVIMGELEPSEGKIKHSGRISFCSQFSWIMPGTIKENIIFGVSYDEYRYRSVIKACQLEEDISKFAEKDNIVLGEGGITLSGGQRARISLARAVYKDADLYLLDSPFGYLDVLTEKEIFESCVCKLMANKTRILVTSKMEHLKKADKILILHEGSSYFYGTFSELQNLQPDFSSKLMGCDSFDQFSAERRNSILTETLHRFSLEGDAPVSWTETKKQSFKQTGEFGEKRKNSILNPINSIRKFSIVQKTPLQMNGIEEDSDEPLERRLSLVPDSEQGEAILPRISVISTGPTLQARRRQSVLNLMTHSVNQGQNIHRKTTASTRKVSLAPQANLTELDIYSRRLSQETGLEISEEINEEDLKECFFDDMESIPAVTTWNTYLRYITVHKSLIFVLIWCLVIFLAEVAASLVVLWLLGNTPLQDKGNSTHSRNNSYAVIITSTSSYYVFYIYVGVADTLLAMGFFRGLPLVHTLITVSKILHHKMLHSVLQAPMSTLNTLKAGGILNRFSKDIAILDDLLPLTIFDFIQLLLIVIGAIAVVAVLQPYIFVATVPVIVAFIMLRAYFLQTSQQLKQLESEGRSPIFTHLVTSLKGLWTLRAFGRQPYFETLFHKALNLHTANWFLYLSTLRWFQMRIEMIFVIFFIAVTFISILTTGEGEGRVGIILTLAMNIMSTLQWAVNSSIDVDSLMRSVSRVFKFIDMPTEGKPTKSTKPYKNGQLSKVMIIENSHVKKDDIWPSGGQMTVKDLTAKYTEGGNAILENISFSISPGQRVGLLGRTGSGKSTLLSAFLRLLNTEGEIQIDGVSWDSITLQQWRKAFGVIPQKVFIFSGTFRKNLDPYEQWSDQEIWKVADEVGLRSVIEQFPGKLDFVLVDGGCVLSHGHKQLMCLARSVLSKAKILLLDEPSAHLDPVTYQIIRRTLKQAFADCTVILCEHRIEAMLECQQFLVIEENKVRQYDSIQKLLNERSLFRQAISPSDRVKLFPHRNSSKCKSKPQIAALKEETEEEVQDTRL
- protocol_summary: Apical membrane Cl− current in CFTR-expressing FRT cells
- cond: CFTR activated by CPT-cAMP; basolateral membrane permeabilized, Cl− gradient; inhibitor in apical solution; read-out: apparent IC50 for inhibition of CFTR Cl− current
pIC50: −log10 of the molar value.
readout_label: pIC50

compound_smiles	experimental_system	result
O=C(CNc1ccc2ccccc2c1)N/N=C/c1cc(Br)c(O)c(Br)c1O	human CFTR (Homo sapiens)	~5.10
